Reference source: patent EP1268431B1

# Tested on: Rat2 fibroblasts stably transformed with a plasmid containing a CMV promotor controlled v-Src/Hu c-Src fusion gene
# assay notes: Anchorage Independent Src-transformed Fibroblast Proliferation Assay
# settings: Rattus norvegicus, Rat2, 120 h, read-out: anch-indep src-tx fib IC50, suspension growth, MTS on Day 5
Overview of recorded pIC50 for various compounds
Reminder that pIC50 means the negative base-10 logarithm of the concentration expressed in mol/L.

>  <compound>
COc1cc(Nc2c(C#N)cnc3cc(-c4ccc(CCN5CCOCC5)cc4)ccc23)c(Cl)cc1Cl [Example 27]

>  <data value>
5.99

$$$$
>  <compound>
COc1cc(Nc2c(C#N)cnc3cc(-c4cccc(N)c4)ccc23)c(Cl)cc1Cl [Example 174]

>  <data value>
5.25

$$$$
>  <compound>
COc1cc(Nc2c(C#N)cnc3cc(-c4csc(CN5CCC(O)CC5)c4)ccc23)c(Cl)cc1Cl [Example 192]

>  <data value>
6.77

$$$$
>  <compound>
COC(=O)C1CCN(Cc2ccc(-c3ccc4c(Nc5cc(OC)c(Cl)cc5Cl)c(C#N)cnc4c3)nc2)CC1 [Example 176]

>  <data value>
7.05

$$$$
>  <compound>
COc1cc(Nc2c(C#N)cnc3cc(-c4cccc(NC(C)=O)c4)ccc23)c(Cl)cc1Cl [Example 118]

>  <data value>
5.52

$$$$
>  <compound>
COc1cc(Nc2c(C#N)cnc3cc(-c4ccc(CN5CCOCC5)s4)ccc23)c(Cl)cc1Cl [Example 23]

>  <data value>
7.05

$$$$
>  <compound>
COc1cc(Nc2c(C#N)cnc3cc(-c4cccc(CCN5CCOCC5)c4)ccc23)c(Cl)cc1Cl [Example 28]

>  <data value>
5.39

$$$$
>  <compound>
CCN(CC)Cc1ccc(-c2ccc3c(Nc4cc(OC)c(Cl)cc4Cl)c(C#N)cnc3c2)cc1 [Example 87]

>  <data value>
6.66

$$$$
>  <compound>
COc1cc(Nc2c(C#N)cnc3cc(-c4cc(CN5CCOCC5)c(CN5CCOCC5)s4)c(OC)cc23)c(Cl)cc1Cl [Example 82]

>  <data value>
7.30

$$$$
>  <compound>
COc1cc(Nc2c(C#N)cnc3cc(C#CCN4CCOCC4)c(OC)cc23)c(Cl)cc1Cl [Example 166]

>  <data value>
6.14

$$$$

Query :: Any idea what its pIC50 is? The compound is COc1cc(Nc2c(C#N)cnc3cc(-c4csc(CN5CCOCC5)c4)ccc23)c(Cl)cc1C [Example 80]
Result :: 7.10

Query :: Bench note: what pIC50 did COc1cc(Nc2c(C#N)cnc3cc(-c4ccc(CN5CCOCC5)cc4)ccc23)c(Cl)cc1C [Example 234] show?
Result :: 6.14

Query :: Consider the compound COc1cc(Nc2c(C#N)cnc3cc(-c4ccc(CNCCS(=O)(=O)c5ccccc5)o4)ccc23)c(Cl)cc1Cl [Example 58] and give its measured pIC50.
Result :: 5.29

Query :: Requested read-out: pIC50. Entry: COc1cc(Nc2c(C#N)cnc3cc(-c4ccc(CN5CCC[C@@H]5C(N)=O)o4)ccc23)c(Cl)cc1Cl [Example 47]
Result :: 5.93

Query :: Item COc1ccc(Cl)c(Nc2c(C#N)cnc3cc(-c4ccc(CN5CCOCC5)cc4)ccc23)c1 [Example 236] has what recorded pIC50?
Result :: 6.24

Query :: Item under review: COc1cc(Nc2c(C#N)cnc3cc(-c4ccc(CN5CCN(C)CC5)n4C)ccc23)c(Cl)cc1Cl [Example 71] . Reported pIC50?
Result :: 5.17

Query :: Report pIC50 for COc1cc(Nc2c(C#N)cnc3cc(-c4ccc(C=O)cc4)ccc23)c(Cl)cc1Cl [Example 83] please.
Result :: 5.41

Query :: Could you share which pIC50 value was measured for COc1cc(Nc2c(C#N)cnc3cc(-c4ccc(CN5CCOCC5)cc4)ccc23)c(Cl)cc1Cl [Example 29] ?
Result :: 6.27

Query :: Looking for the measured pIC50 of COc1cc(Nc2c(C#N)cnc3cc(-c4ccc(CN5CCOCC5)cc4)c(OC)cc23)c(Cl)cc1Cl [Example 37] , can you help?
Result :: 5.80
